assay: chemical genetic growth profiling, strain panel (AID 1159580);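 note: tested at 20 µM; growth read once vehicle control cultures reached saturation at 30 °C; 1 = growth at the plate median or of vehicle wells; lower values mean less growth of the strain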; conditions: S. cerevisiae deletion strains, growth OD, locus YPL153C, strain RAD53, hits give low values
The whole screen tested about 5,500 compounds, of which about 2,000 (36%) were called active. Another 18% or so got no clear call; they are omitted. The list shows a part of the results.
Please go through the items and note down their normalized growth.
Note: the reply should be a number with no unit written.

Exercise: Entry CC1C/C(=N/Nc2ccc(Br)cc2)c2cc(Cl)ccc2S1(=O)=O (configuration not stated) : reported normalized growth = ?
Solution: 0.854

Exercise: Also S=C(Nc1cc(Cl)c(Cl)cc1Cl)Nc1ccccc1Br , if possible.
Solution: 0.837

Exercise: Also Oc1ccc(N=Nc2ccccn2)c(O)c1 , if possible.
Solution: 0.1

Exercise: Also CNC(=O)n1nc(C)c(Cc2csc3ccc(Cl)cc23)c1C , if possible.
Solution: 0.936

Exercise: Also O=C(NNc1ccc(Cl)cc1)c1ccc(F)cc1F , if possible.
Solution: 0.696

Exercise: Also COc1cc(CC/C(C)=N\O)ccc1OCc1ccc(Cl)c(Cl)c1 , if possible.
Solution: 0.833

Exercise: Also COc1ccc(C(=O)NCc2csc3ccc(Cl)cc23)cc1OC , if possible.
Solution: 0.995

Exercise: Also CC1C/C(=N/Nc2ccc(Br)cc2)c2cc(Cl)ccc2S1 (configuration not stated) , if possible.
Solution: 0.126

Exercise: Also CS(=O)(=O)/C(C#N)=C/c1ccccc1OCc1c(Cl)cccc1Cl , if possible.
Solution: 0.95

Exercise: Also Cc1ccc(N2C(=O)CSC2c2ccc(Cl)c(Cl)c2)cc1Cl (configuration not stated) , if possible.
Solution: 0.984

Exercise: Also O=C1/C(=C/c2ccc(C(F)(F)F)cc2)COc2ccccc21 , if possible.
Solution: 0.93

Exercise: Also NNC(=O)c1csc(Cc2c(Cl)sc3ccc(Cl)cc23)n1 , if possible.
Solution: 0.974

* * *

test: chemical genetic growth profiling, strain panel (AID 1159580);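 note: tested at 20 µM; growth read once vehicle control cultures reached saturation at 30 °C; 1 = growth at the plate median or of vehicle wells; lower values mean less growth of the strain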; settings: S. cerevisiae deletion strains, growth OD, locus YNL175C, strain NOP13
About 2,000 (36%) of roughly 5,500 compounds were called active. Inconclusive results (about 18%) are left out. Cut-off read from the data, not from the text of the source: active = normalized growth mostly below about 0.91 (no sharp cut-off); inconclusive = no clear call, values can overlap the other calls; inactive = mostly above about 0.92. The list shows a part of the results.
Outcome (select one): active, inactive

Exercise: Outcome? Cc1nc2sccn2c(=O)c1CCN1CCC(=C(c2ccccc2)c2ccc(F)cc2)CC1
Solution: inactive

Exercise: Also CCn1c(=O)c2[nH]c(-c3ccccc3)nc2n(CC)c1=O , if possible.
Solution: inactive

Exercise: Also N[C@@H](CC(=O)O)C(=O)O , if possible.
Solution: inactive

Exercise: Also N[C@@H](Cc1c[nH]c2ccc(O)cc12)C(=O)O , if possible.
Solution: inactive

Exercise: Also O=[N+]([O-])c1cccc2cn[nH]c12 , if possible.
Solution: inactive

Exercise: Also O=[N+]([O-])c1cccc2c(Br)[nH]nc12 , if possible.
Solution: inactive

Exercise: Also NS(=O)(=O)c1cccc2c1c([N+](=O)[O-])cc1nc(O)c(O)nc12 , if possible.
Solution: inactive

Exercise: Also CN1C[C@H](CNC(=O)OCc2ccccc2)C[C@@H]2c3cccc4c3c(cn4C)C[C@H]21 , if possible.
Solution: inactive

Exercise: Also OCC1O[C@H](O)C(Cl)C(O)C1O (stereo partly specified) , if possible.
Solution: inactive

Exercise: Also N[C@@H](Cc1ccc(F)cc1)C(=O)O , if possible.
Solution: inactive

Exercise: Also Cc1nc2sccn2c(=O)c1CCN1CCC(=C(c2ccc(F)cc2)c2ccc(F)cc2)CC1 , if possible.
Solution: active

Values were extracted from PubChem BioAssay AID1159580.
